# System: MOLT-4
# Test: Growth inhibition of human MOLT4 cells at 10 uM incubated for 48 hrs by sulforhodamine B assay relative to control
# Type: functional
# Settings: MOLT-4, 48 h, read-out: GI

Compound	System	Bound Sign	inhibition of growth at 10 µM (%)
CCOC(=O)C1=C(C)NC(SCc2nnc(-c3ccc(Cl)cc3)o2)=NC1c1ccc(Br)cc1 (stereo not drawn)	MOLT-4	=	91.7
CCOC(=O)C1=C(C)NC(SCc2nnc(-c3ccc(Cl)cc3)o2)=NC1c1ccc(Cl)cc1Cl (stereo not drawn)	MOLT-4	=	88.8
CC(=O)C1=C(C)NC(SCc2nnc(-c3ccc(Cl)cc3)o2)=NC1c1ccc(F)cc1 (stereo not drawn)	MOLT-4	<	10
CCOC(=O)C1=C(C)NC(SCc2nnc(-c3ccc(Cl)cc3)o2)=NC1c1ccc(Cl)cc1 (stereo not drawn)	MOLT-4	=	93
CCOC(=O)C1=C(C)NC(SCc2nnc(-c3ccc(C)cc3)o2)=NC1c1ccc(F)cc1 (stereo not drawn)	MOLT-4	=	21.6
CCOC(=O)C1=C(C)NC(SCc2nnc(-c3ccc(OC)cc3)o2)=NC1c1ccc(F)cc1 (stereo not drawn)	MOLT-4	<	10
CCOC(=O)C1=C(C)NC(SCc2nnc(-c3ccc(Cl)cc3)o2)=NC1c1cccc(Cl)c1 (stereo not drawn)	MOLT-4	=	45
CC(=O)C1=C(C)NC(SCc2nnc(-c3ccc(C)cc3)o2)=NC1c1ccc(F)cc1 (stereo not drawn)	MOLT-4	<	10
CCOC(=O)C1=C(C)NC(SCc2nnc(-c3ccc(Cl)cc3)o2)=NC1c1ccccc1 (stereo not drawn)	MOLT-4	=	31.3
COc1ccc(-c2nnc(CSC3=NC(c4ccc(F)cc4)C(C(C)=O)=C(C)N3)o2)cc1 (stereo not drawn)	MOLT-4	=	10.9
CC(=O)C1=C(C)NC(SCc2nnc(-c3ccc(Cl)cc3)o2)=NC1c1ccc(Cl)cc1 (stereo not drawn)	MOLT-4	=	24.4
CCOC(=O)C1=C(C)NC(SCc2nnc(-c3ccc(Cl)cc3)o2)=NC1c1ccc(OC)cc1 (stereo not drawn)	MOLT-4	<	10
CCOC(=O)C1=C(C)NC(SCc2nnc(-c3ccc(Cl)cc3)o2)=NC1c1ccc(F)cc1 (stereo not drawn)	MOLT-4	=	20.4

----------
# Tested on: M14
# Test: Growth inhibition of human M14 cells at 10 uM incubated for 48 hrs by sulforhodamine B assay relative to control
# Type: functional
# Settings: M14, 48 h, read-out: GI
Parameter Measured: inhibition of growth at 10 µM

Molecule	Parameter Measured	Observed Measurement
CCOC(=O)C1=C(C)NC(SCc2nnc(-c3ccc(OC)cc3)o2)=NC1c1ccc(F)cc1 (centres undefined)	inhibition of growth at 10 µM	< 10%
CCOC(=O)C1=C(C)NC(SCc2nnc(-c3ccc(C)cc3)o2)=NC1c1ccc(F)cc1 (centres undefined)	inhibition of growth at 10 µM	< 10%
CC(=O)C1=C(C)NC(SCc2nnc(-c3ccc(Cl)cc3)o2)=NC1c1ccc(Cl)cc1 (centres undefined)	inhibition of growth at 10 µM	< 10%
CC(=O)C1=C(C)NC(SCc2nnc(-c3ccc(C)cc3)o2)=NC1c1ccc(F)cc1 (centres undefined)	inhibition of growth at 10 µM	< 10%
CCOC(=O)C1=C(C)NC(SCc2nnc(-c3ccc(Cl)cc3)o2)=NC1c1ccc(Cl)cc1Cl (centres undefined)	inhibition of growth at 10 µM	34.8%
CCOC(=O)C1=C(C)NC(SCc2nnc(-c3ccc(Cl)cc3)o2)=NC1c1ccc(F)cc1 (centres undefined)	inhibition of growth at 10 µM	< 10%
CCOC(=O)C1=C(C)NC(SCc2nnc(-c3ccc(Cl)cc3)o2)=NC1c1ccccc1 (centres undefined)	inhibition of growth at 10 µM	19.5%
CC(=O)C1=C(C)NC(SCc2nnc(-c3ccc(Cl)cc3)o2)=NC1c1ccc(F)cc1 (centres undefined)	inhibition of growth at 10 µM	< 10%
CCOC(=O)C1=C(C)NC(SCc2nnc(-c3ccc(Cl)cc3)o2)=NC1c1ccc(OC)cc1 (centres undefined)	inhibition of growth at 10 µM	< 10%

----------
The following compounds are listed with their measured inhibition of growth at 10 µM values.
# Test system: BT-549
# Test: Growth inhibition of human BT549 cells at 10 uM incubated for 48 hrs by sulforhodamine B assay relative to control
# Type: functional
# Settings: BT-549, 48 h, read-out: GI

Compound	Unit Text	Bound Sign	inhibition of growth at 10 µM
CCOC(=O)C1=C(C)NC(SCc2nnc(-c3ccc(Cl)cc3)o2)=NC1c1ccc(Cl)cc1Cl (stereo not drawn)	%	=	10.3
CCOC(=O)C1=C(C)NC(SCc2nnc(-c3ccc(Cl)cc3)o2)=NC1c1ccc(Cl)cc1 (stereo not drawn)	%	=	24.7
CCOC(=O)C1=C(C)NC(SCc2nnc(-c3ccc(Cl)cc3)o2)=NC1c1cccc(Cl)c1 (stereo not drawn)	%	=	46.9
CCOC(=O)C1=C(C)NC(SCc2nnc(-c3ccc(Cl)cc3)o2)=NC1c1ccccc1 (stereo not drawn)	%	=	42.7
CC(=O)C1=C(C)NC(SCc2nnc(-c3ccc(Cl)cc3)o2)=NC1c1ccc(Cl)cc1 (stereo not drawn)	%	=	15.1
CC(=O)C1=C(C)NC(SCc2nnc(-c3ccc(C)cc3)o2)=NC1c1ccc(F)cc1 (stereo not drawn)	%	=	13.9
CCOC(=O)C1=C(C)NC(SCc2nnc(-c3ccc(OC)cc3)o2)=NC1c1ccc(F)cc1 (stereo not drawn)	%	<	10
CCOC(=O)C1=C(C)NC(SCc2nnc(-c3ccc(Cl)cc3)o2)=NC1c1ccc(Br)cc1 (stereo not drawn)	%	=	20.2
CC(=O)C1=C(C)NC(SCc2nnc(-c3ccc(Cl)cc3)o2)=NC1c1ccc(F)cc1 (stereo not drawn)	%	<	10
COc1ccc(-c2nnc(CSC3=NC(c4ccc(F)cc4)C(C(C)=O)=C(C)N3)o2)cc1 (stereo not drawn)	%	<	10
CCOC(=O)C1=C(C)NC(SCc2nnc(-c3ccc(C)cc3)o2)=NC1c1ccc(F)cc1 (stereo not drawn)	%	=	12.8
CCOC(=O)C1=C(C)NC(SCc2nnc(-c3ccc(Cl)cc3)o2)=NC1c1ccc(F)cc1 (stereo not drawn)	%	<	10
CCOC(=O)C1=C(C)NC(SCc2nnc(-c3ccc(Cl)cc3)o2)=NC1c1ccc(OC)cc1 (stereo not drawn)	%	=	16.9

----------
The following molecules are listed with their measured inhibition of growth at 10 µM values.
# System: SF-268
# Test: Growth inhibition of human SF268 cells at 10 uM incubated for 48 hrs by sulforhodamine B assay relative to control
# Type: functional
# Settings: SF-268, 48 h, read-out: GI

Molecule	Unit Text	Bound Sign	inhibition of growth at 10 µM
COc1ccc(-c2nnc(CSC3=NC(c4ccc(F)cc4)C(C(C)=O)=C(C)N3)o2)cc1 (centres undefined)	%	<	10
CCOC(=O)C1=C(C)NC(SCc2nnc(-c3ccc(Cl)cc3)o2)=NC1c1ccc(Cl)cc1Cl (centres undefined)	%	=	26.7
CCOC(=O)C1=C(C)NC(SCc2nnc(-c3ccc(Cl)cc3)o2)=NC1c1ccc(Cl)cc1 (centres undefined)	%	=	14
CC(=O)C1=C(C)NC(SCc2nnc(-c3ccc(Cl)cc3)o2)=NC1c1ccc(F)cc1 (centres undefined)	%	<	10

----------
The following molecules are listed with their measured inhibition of growth at 10 µM values.
# Test system: TK-10
# Test: Growth inhibition of human TK10 cells at 10 uM incubated for 48 hrs by sulforhodamine B assay relative to control
# Assay type: functional
# Settings: TK-10, 48 h, read-out: GI
Parameter Measured: inhibition of growth at 10 µM (%)

Molecule	System	Parameter Measured	Bound Sign	Observed Measurement
CC(=O)C1=C(C)NC(SCc2nnc(-c3ccc(C)cc3)o2)=NC1c1ccc(F)cc1 (centres undefined)	TK-10	inhibition of growth at 10 µM	=	14.4
CCOC(=O)C1=C(C)NC(SCc2nnc(-c3ccc(Cl)cc3)o2)=NC1c1ccc(OC)cc1 (centres undefined)	TK-10	inhibition of growth at 10 µM	<	10
CCOC(=O)C1=C(C)NC(SCc2nnc(-c3ccc(Cl)cc3)o2)=NC1c1ccc(F)cc1 (centres undefined)	TK-10	inhibition of growth at 10 µM	=	13.9
CCOC(=O)C1=C(C)NC(SCc2nnc(-c3ccc(Cl)cc3)o2)=NC1c1cccc(Cl)c1 (centres undefined)	TK-10	inhibition of growth at 10 µM	=	30.3

----------
# Test system: SF-295
# Test: Growth inhibition of human SF295 cells at 10 uM incubated for 48 hrs by sulforhodamine B assay relative to control
# Type: functional
# Settings: SF-295, 48 h, read-out: GI
Parameter Measured: inhibition of growth at 10 µM (%)

Compound	Unit Text	Bound Sign	Observed Measurement
COc1ccc(-c2nnc(CSC3=NC(c4ccc(F)cc4)C(C(C)=O)=C(C)N3)o2)cc1 (stereo not drawn)	%	<	10
CC(=O)C1=C(C)NC(SCc2nnc(-c3ccc(Cl)cc3)o2)=NC1c1ccc(Cl)cc1 (stereo not drawn)	%	<	10
CC(=O)C1=C(C)NC(SCc2nnc(-c3ccc(Cl)cc3)o2)=NC1c1ccc(F)cc1 (stereo not drawn)	%	<	10
CCOC(=O)C1=C(C)NC(SCc2nnc(-c3ccc(OC)cc3)o2)=NC1c1ccc(F)cc1 (stereo not drawn)	%	<	10
CCOC(=O)C1=C(C)NC(SCc2nnc(-c3ccc(Cl)cc3)o2)=NC1c1ccc(Cl)cc1 (stereo not drawn)	%	=	25.9
CCOC(=O)C1=C(C)NC(SCc2nnc(-c3ccc(Cl)cc3)o2)=NC1c1ccc(Br)cc1 (stereo not drawn)	%	=	26.4
CCOC(=O)C1=C(C)NC(SCc2nnc(-c3ccc(Cl)cc3)o2)=NC1c1ccc(Cl)cc1Cl (stereo not drawn)	%	=	52.8
CCOC(=O)C1=C(C)NC(SCc2nnc(-c3ccc(Cl)cc3)o2)=NC1c1ccccc1 (stereo not drawn)	%	=	23.4
CCOC(=O)C1=C(C)NC(SCc2nnc(-c3ccc(C)cc3)o2)=NC1c1ccc(F)cc1 (stereo not drawn)	%	=	12.1
CC(=O)C1=C(C)NC(SCc2nnc(-c3ccc(C)cc3)o2)=NC1c1ccc(F)cc1 (stereo not drawn)	%	<	10
CCOC(=O)C1=C(C)NC(SCc2nnc(-c3ccc(Cl)cc3)o2)=NC1c1ccc(OC)cc1 (stereo not drawn)	%	<	10
CCOC(=O)C1=C(C)NC(SCc2nnc(-c3ccc(Cl)cc3)o2)=NC1c1cccc(Cl)c1 (stereo not drawn)	%	=	25.5
CCOC(=O)C1=C(C)NC(SCc2nnc(-c3ccc(Cl)cc3)o2)=NC1c1ccc(F)cc1 (stereo not drawn)	%	<	10
